Provide the recorded % of labelled cells for the entries that follow.
- Tested system: T1, human CCR8 (human, UniProt P51685 1-355)
- T1 construct: the cells are named under assay; also called hCCR8
- Assay method text: flow cytometry, HUT78 cells (native CCR8)
All answers are understood in %, so give the number only.

Problem: Need % of labelled cells, item 3-80 (antibody, human IgG1, kappa, V domains shown, humanized, human IgG1 kappa) VH: QVQLVQSGPEVVKPGASVKVSCKTSGYTFTEYTIHWVRQAPGQSLEWVGGINPNNGNTRYDQKFQGRVTITRDKSASTAYMELRSLTSEDTAVYYCARVARSSGSGPYAMDYWGQGTTVTVSS VL: DVVMTQSPLSLPVTLGDQASISCRCSQSLLHTNGDTYLHWYLQRPGQSPRLLIYKVSNRFSGVPDRFSGSGSGTDFTLKISRVEAEDVGVYFCSQSTHVPYTFGGGTKVEIKR
Solution: 96

Problem: Now consider 3-79 (antibody, human IgG1, kappa, V domains shown, humanized, human IgG1 kappa) VH: EVQLLESGGGLVQPGGSLRLSCAASGFTFNAYAMNWVRQAPGKGLEWVARIRSKSNDYATYYGDSVKGRFTISRDNSKNTLYLQMNSLRAEDTAVYYCVRGREAYYRYDGGYYAMDVWGQGTTVTVSS VL: DIVMTQSPLSLPVTPGEPASISCRSSKSLLHSNGNTYLYWFLQKPGQSPQLLIYRVSNLASGVPDRFSGSGSGTDFTLKISRVEAEDVGVYYCMQHREYPFTFGQGTKLEIKR .
Solution: 97

Problem: And then 3-81 (antibody, human IgG1, kappa, V domains shown, humanized, human IgG1 kappa) VH: QVQLQQSGPEVVKPGASVKVSCKTSGYTFTEYTIHWVRQSHGQSLEWVGGINPNNGNTRYDQKFKGRVTITIDKSSSTAYMELRSLTSEDTAVYYCARVARSSGSGPYAMDYWGQGTTVTVSS VL: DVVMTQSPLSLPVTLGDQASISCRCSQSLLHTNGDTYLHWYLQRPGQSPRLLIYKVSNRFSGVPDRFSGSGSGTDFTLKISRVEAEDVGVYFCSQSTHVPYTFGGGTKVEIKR , what is it?
Solution: 88
